# system tested: NPFF1 (Homo sapiens, UniProt Q9GZQ6)
# Sequence (Q9GZQ6 whole entry, species assumed): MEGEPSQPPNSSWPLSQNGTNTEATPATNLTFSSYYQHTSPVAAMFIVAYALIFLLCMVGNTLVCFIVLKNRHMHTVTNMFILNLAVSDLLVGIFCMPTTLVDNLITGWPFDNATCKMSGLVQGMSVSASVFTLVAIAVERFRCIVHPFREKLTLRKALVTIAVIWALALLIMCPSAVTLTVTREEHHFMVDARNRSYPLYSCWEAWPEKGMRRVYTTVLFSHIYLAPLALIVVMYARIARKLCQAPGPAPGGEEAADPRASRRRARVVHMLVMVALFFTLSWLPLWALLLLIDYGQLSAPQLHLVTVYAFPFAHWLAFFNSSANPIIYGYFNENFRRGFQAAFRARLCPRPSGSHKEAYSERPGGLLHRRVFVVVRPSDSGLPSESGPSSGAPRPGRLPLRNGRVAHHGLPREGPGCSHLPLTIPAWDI
# procedure details: Receptor Selection and Amplification Technology (R-SAT) functional assay, NPFF1
# Format: cell-based
# Set-up: expressed in transfected cells; host or cells: NIH3T3
# measurement parameters: R-SAT, Table 1; Efficacy is relative to endogenous ligand; read-out: NPFF1 % Efficacy
Structures can show the parent of a compound that is named as a salt.
Reported Emax by item:
Mention the unit after the number when you answer.

These recorded examples may help you get a feel for the data.
CCc1ccc(C=NNC(=N)N)cc1 [Compound 3025, Hydrochloride]	28%
CC(=NNC(=N)N)c1ccc2c(c1)CCCC2 [Compound 3024, Hydrochloride]	41%
NC(N)=NN=Cc1ccc(Cl)c(C(F)(F)F)c1 [Compound 2035, Hydrochloride]	45%

Ask | Which Emax is reported for this compound? CN(CCC#N)c1ccc(C=NNC(=N)N)cc1 [Compound 3040, Hydrochloride]
Reply | 48%

Ask | Which Emax is reported for this compound? CC(=NNC(=N)N)c1ccc2c(c1)OCCO2 [Compound 2040, Hydrochloride]
Reply | 18%

Ask | Which Emax is reported for this compound? N=C(N)NN=Cc1ccc(F)c(C(F)(F)F)c1 [Compound 2068, Hydrochloride]
Reply | 13%

Ask | Which Emax is reported for this compound? N=C(N)NN=Cc1ccc(F)c(Cl)c1 [Compound 2013, Hydrochloride]
Reply | 4%
